Every entry's value here was drawn from PubChem BioAssay (NCI).

tested on: RPMI-8226 leukemia; experiment: NCI-60 one-dose screen, 48 h; settings: 10 µM unless noted
The panel holds about 83,000 compounds, 20% with a hit somewhere; the sample as a whole holds those more often. Calls of active or inactive are those of the source. Rule for the calls: active = growth percent below 10; inactive = the rest.
Result category, one only: active, inactive

Consider the worked cases shown below.
| Compound | Group |
| --- | --- |
| CN(C)CCCNc1nn2c(=O)c3ccccc3nc2c2ccccc12 | inactive |
| Cc1sc2nc(NCc3ccccc3)[nH]c(=O)c2c1C | inactive |
| N#Cc1c(NC(=O)c2ccco2)[n+]([O-])c2ccccc2[n+]1[O-] | inactive |
| N#CC(C#N)C(C#N)C#N | inactive |
| CCSCC1CC(O)(c2ccccc2)C(c2ccccc2)C(c2ccc(Cl)cc2)O1 (stereo unspecified) | active |

Q: What call does the record list for C[N+]1(C)C2CC[C@@H]1CC(OC(=O)C(O)c1ccccc1)C2 (stereo partly specified) ?
Result: inactive

Q: What call does the record list for COCCOCCOCCOCCOc1ccc2c(c1)C(=O)c1nc3ncccc3c(=O)n1-2 ?
Result: active

Q: What call does the record list for O=C1C(=O)c2c(nc3ccc(Cl)cn23)-c2ccccc21 ?
Result: active

Q: What call does the record list for N#CSCC1CC(O)(c2ccccc2)C(c2ccccc2)C(c2ccc(Cl)cc2)O1 (stereo unspecified) ?
Result: active

Q: What call does the record list for CN(C)c1ccc(-n2nc3ccccc3n2)cc1 ?
Result: inactive

Q: What call does the record list for C/C(=C\CCc1ccoc1)CC/C=C(\C)CCCN1CCSCC1 ?
Result: inactive

Q: What call does the record list for COc1cccc2c1C(=O)c1c(O)c3c(c(O)c1C2=O)C[C@@](O)(C(C)=O)C[C@@H]3O[C@H]1C[C@H](N)[C@H](O)[C@H](C)O1 ?
Result: active

Q: What call does the record list for O=C(NCCNC(=O)Oc1cccc2ccccc12)Oc1cccc2ccccc12 ?
Result: inactive

Q: What call does the record list for O=C(CNC(=O)c1cccc2ccccc12)Nc1ccccc1Oc1cccc(O)c1 ?
Result: inactive

Q: What call does the record list for CC1CN(/N=C/c2ccc([N+](=O)[O-])o2)C(=N)O1 (stereo unspecified) ?
Result: inactive

Q: What call does the record list for C[C@]12CCC(=O)C=C1CC[C@H]1[C@@H]3C[C@@H](O)[C@](O)(C(=O)CO)[C@@]3(C)C[C@H](O)[C@@]12F ?
Result: inactive

Q: What call does the record list for Cc1ccc(N/N=C(/C(=O)c2ccc(Cl)cc2)c2nc(C)cc(=O)[nH]2)cc1 ?
Result: inactive

Q: What call does the record list for COC(=O)c1c(NC(=O)CSc2nnnn2-c2ccc(OC)cc2)sc(C)c1C ?
Result: inactive

Q: What call does the record list for CCCCCN(CCCCC)CCCNc1c2c(nc3ccc(Cl)cc13)CCCC2 ?
Result: active

Q: What call does the record list for NS(=O)(=O)c1ccc(-n2ncc3c(N/N=C/c4ccccc4)ncnc32)cc1 ?
Result: inactive
